Some molecules, each annotated with its measured Max Editing.
- Tested on: TTR
- experimentalDetails: TTR editing dose response (EC50, maximum editing) in primary cyno hepatocytes treated with LNP formulated U-depleted Spy Cas9 mRNA and sgRNAs
- Format: cell-based, cynomolgus monkey
- experimentalConditions: LNP formulated U-depleted Spy Cas9 mRNA and human specific sgRNAs
Strand notation (5' to 3'): a small letter for the sugar, then the base; units joined by * are phosphorothioate-linked, units joined directly phosphodiester-linked; [ ] holds rarer units or linkages, { } end groups; capitals alone tell only the bases. m = 2'-O-methyl; r = 2'-OH (RNA)
Report the figure in % without appending any unit label.

# annotated cases, reported Max Editing shown
G000567: TTR sgRNA modified sequence, Human, SEQ ID NO: 109; guide sequence of CR003352 (nucleic acid) guide: mG*mA*mA*rArGrGrCrUrGrCrUrGrArUrGrArCrArCrCrGrUrUrUrUrArGrAmGmCmUmAmGmAmAmAmUmAmGmCrArArGrUrUrArArArArUrArArGrGrCrUrArGrUrCrCrGrUrUrArUrCrAmAmCmUmUmGmAmAmAmAmAmGmUmGmGmCmAmCmCmGmAmGmUmCmGmGmUmGmCmU*mU*mU*mU; 97.06
G000499: TTR sgRNA modified sequence, Human, SEQ ID NO: 106; guide sequence of CR005303 (nucleic acid) guide: mU*mG*mA*rArUrCrCrArArGrUrGrUrCrCrUrCrUrGrArGrUrUrUrUrArGrAmGmCmUmAmGmAmAmAmUmAmGmCrArArGrUrUrArArArArUrArArGrGrCrUrArGrUrCrCrGrUrUrArUrCrAmAmCmUmUmGmAmAmAmAmAmGmUmGmGmCmAmCmCmGmAmGmUmCmGmGmUmGmCmU*mU*mU*mU; 74.94

Continue with the molecule presented below.
// recorded Max Editing for G000568: TTR sgRNA modified sequence, Human, SEQ ID NO: 110; guide sequence of CR003391 (nucleic acid) guide: mG*mG*mC*rUrGrUrCrGrUrCrArCrCrArArUrCrCrCrArGrUrUrUrUrArGrAmGmCmUmAmGmAmAmAmUmAmGmCrArArGrUrUrArArArArUrArArGrGrCrUrArGrUrCrCrGrUrUrArUrCrAmAmCmUmUmGmAmAmAmAmAmGmUmGmGmCmAmCmCmGmAmGmUmCmGmGmUmGmCmU*mU*mU*mU : 87.93

Values from patent US20230035659A1
